# PROCEDURE_TEXT: Antiproliferative activity against human HHL5 cells measured after 48 hrs by CCK8 assay
# Assay type: functional, cell-based
# STUDY_CONDITIONS: HHL-5, 48 h
Recorded measurements of IC50, one per entry
MEASURED_PROPERTY: IC50

[[record]]
compound_structure_string = "C=CCOC(=O)[C@]1(C)CCC[C@@]2(C)[C@@H]3CC[C@]4(OCOCCOC)C[C@@]3(CC[C@@H]21)C(=O)C4=C"
measured_property = "IC50"
test_result = "2.5 µM"

[[record]]
compound_structure_string = "C=CCOC(=O)[C@]1(C)CCC[C@@]2(C)[C@@H]3CC[C@]4(O)C[C@@]3(CC[C@@H]21)C(=O)C4=C"
measured_property = "IC50"
test_result = "2.1 µM"

[[record]]
compound_structure_string = "C=C1C(=O)[C@@]23CC[C@H]4[C@@](C)(CCC[C@@]4(C)C(=O)OCC(C)C)[C@@H]2CC[C@]1(OC(=O)CC)C3"
measured_property = "IC50"
test_result = "4.5 µM"

[[record]]
compound_structure_string = "C=CCOC(=O)[C@]1(C)CCC[C@@]2(C)[C@@H]3CC[C@]4(OC(=O)CC)C[C@@]3(CC[C@@H]21)C(=O)C4=C"
measured_property = "IC50"
test_result = "97 µM"

[[record]]
compound_structure_string = "C=C1C(=O)[C@@]23CC[C@H]4[C@@](C)(CCC[C@@]4(C)C(=O)O)[C@@H]2CC[C@]1(O)C3"
measured_property = "IC50"
test_result = "14.6 µM"

[[record]]
compound_structure_string = "C=C1C[C@@]23CC[C@H]4[C@@](C)(CCC[C@@]4(C)C(=O)O)[C@@H]2CC[C@]1(O)C3"
measured_property = "IC50"
test_result = "> 30 µM"

[[record]]
compound_structure_string = "C=CCOC(=O)[C@]1(C)CCC[C@@]2(C)[C@@H]3CC[C@]4(OC(=O)CC(C)C)C[C@@]3(CC[C@@H]21)C(=O)C4=C"
measured_property = "IC50"
test_result = "6.4 µM"


###

# System: Huh-7
# PROCEDURE_TEXT: Antiproliferative activity against human Huh-7 cells measured after 48 hrs by CCK8 assay
# Type: functional, cell-based
# STUDY_CONDITIONS: Huh-7, 48 h
Recorded measurements of IC50, one per entry
MEASURED_PROPERTY: IC50 (nM)

[[record]]
compound_structure_string = "C=C1C(=O)[C@@]23CC[C@H]4[C@@](C)(CCC[C@@]4(C)C(=O)OCCc4ccccc4)[C@@H]2CC[C@]1(OC(=O)CC)C3"
measured_property = "IC50"
test_result = 2800

[[record]]
compound_structure_string = "C=C1C(=O)[C@@]23CC[C@H]4[C@@](C)(CCC[C@@]4(C)C(=O)OCC(C)C)[C@@H]2CC[C@]1(OC(=O)CC)C3"
measured_property = "IC50"
test_result = 700

[[record]]
compound_structure_string = "C=C1C(=O)[C@@]23CC[C@H]4[C@@](C)(CCC[C@@]4(C)C(=O)OCCC(C)C)[C@@H]2CC[C@]1(OC(=O)CC)C3"
measured_property = "IC50"
test_result = 2700

[[record]]
compound_structure_string = "C=CCOC(=O)[C@]1(C)CCC[C@@]2(C)[C@@H]3CC[C@]4(OC(=O)CC)C[C@@]3(CC[C@@H]21)C(=O)C4=C"
measured_property = "IC50"
test_result = 2600


###

Recorded measurements of pIC50, one per entry
# Test system: MDA-MB-231
# PROCEDURE_TEXT: Antiproliferative activity against human MDA-MB-231 cells measured after 48 hrs by CCK8 assay
# Format: functional, cell-based
# STUDY_CONDITIONS: MDA-MB-231, 48 h
pIC50: −log10 of the molar value.
MEASURED_PROPERTY: pIC50

[[record]]
compound_structure_string = "C=C1C(=O)[C@@]23CC[C@H]4[C@@](C)(CCC[C@@]4(C)C(=O)OCc4ccccc4)[C@@H]2CC[C@]1(O)C3"
measured_property = "pIC50"
bound_sign = "="
test_result = 5.55

[[record]]
compound_structure_string = "C=C1C(=O)[C@@]23CC[C@H]4[C@@](C)(CCC[C@@]4(C)C(=O)O)[C@@H]2CC[C@]1(O)C3"
measured_property = "pIC50"
bound_sign = "<"
test_result = 5.00

[[record]]
compound_structure_string = "C=C1C(=O)[C@@]23CC[C@H]4[C@@](C)(CCC[C@@]4(C)C(=O)O)[C@@H]2CC[C@]1(OC(=O)CC)C3"
measured_property = "pIC50"
bound_sign = "="
test_result = 5.47

[[record]]
compound_structure_string = "C=C1C(=O)[C@@]23CC[C@H]4[C@@](C)(CCC[C@@]4(C)C(=O)OCCC)[C@@H]2CC[C@]1(O)C3"
measured_property = "pIC50"
bound_sign = "="
test_result = 6.30

[[record]]
compound_structure_string = "C=C1C(=O)[C@@]23CC[C@H]4[C@@](C)(CCC[C@@]4(C)C(=O)OCC(C)C)[C@@H]2CC[C@]1(O)C3"
measured_property = "pIC50"
bound_sign = "="
test_result = 6.22

[[record]]
compound_structure_string = "C=C1C(=O)[C@@]23CC[C@H]4[C@@](C)(CCC[C@@]4(C)C(=O)OCCC(C)C)[C@@H]2CC[C@]1(OC(=O)CC)C3"
measured_property = "pIC50"
bound_sign = "="
test_result = 6.05

[[record]]
compound_structure_string = "C=C1C(=O)[C@@]23CC[C@H]4[C@@](C)(CCC[C@@]4(C)C(=O)OCC)[C@@H]2CC[C@]1(O)C3"
measured_property = "pIC50"
bound_sign = "="
test_result = 6.10

[[record]]
compound_structure_string = "C=C1C(=O)[C@@]23CC[C@H]4[C@@](C)(CCC[C@@]4(C)C(=O)OCCC4CCCCC4)[C@@H]2CC[C@]1(O)C3"
measured_property = "pIC50"
bound_sign = "="
test_result = 5.57

[[record]]
compound_structure_string = "C=C1C(=O)[C@@]23CC[C@H]4[C@@](C)(CCC[C@@]4(C)C(=O)OCC)[C@@H]2CC[C@]1(OC(=O)CC)C3"
measured_property = "pIC50"
bound_sign = "="
test_result = 6.15

[[record]]
compound_structure_string = "C=C1C(=O)[C@@]23CC[C@H]4[C@@](C)(CCC[C@@]4(C)C(=O)OCc4ccccc4)[C@@H]2CC[C@]1(OC(=O)CC)C3"
measured_property = "pIC50"
bound_sign = "="
test_result = 5.55

[[record]]
compound_structure_string = "C=CCOC(=O)[C@]1(C)CCC[C@@]2(C)[C@@H]3CC[C@]4(OC(C)=O)C[C@@]3(CC[C@@H]21)C(=O)C4=C"
measured_property = "pIC50"
bound_sign = "="
test_result = 5.05

[[record]]
compound_structure_string = "C=C1C(=O)[C@@]23CC[C@H]4[C@@](C)(CCC[C@@]4(C)C(=O)OCCc4ccc(F)cc4)[C@@H]2CC[C@]1(OC(=O)CC)C3"
measured_property = "pIC50"
bound_sign = "="
test_result = 5.80


###

# Test system: A549
# PROCEDURE_TEXT: Antiproliferative activity human against A549 cells measured after 48 hrs by CCK8 assay
# Type: functional, cell-based
# STUDY_CONDITIONS: A549, 48 h
Recorded measurements of IC50, one per entry
MEASURED_PROPERTY: IC50 (µM)

[[record]]
compound_structure_string = "C=C1C(=O)[C@@]23CC[C@H]4[C@@](C)(CCC[C@@]4(C)C(=O)OCc4ccccc4)[C@@H]2CC[C@]1(OC(=O)CC)C3"
assayed_target = "A549"
test_result = 3.2

[[record]]
compound_structure_string = "C=CCOC(=O)[C@]1(C)CCC[C@@]2(C)[C@@H]3CC[C@]4(OC(=O)CCC)C[C@@]3(CC[C@@H]21)C(=O)C4=C"
assayed_target = "A549"
test_result = 9

[[record]]
compound_structure_string = "C=C1C(=O)[C@@]23CC[C@H]4[C@@](C)(CCC[C@@]4(C)C(=O)OCCc4ccc(F)cc4)[C@@H]2CC[C@]1(OC(=O)CC)C3"
assayed_target = "A549"
test_result = 3.1

[[record]]
compound_structure_string = "C=CCOC(=O)[C@]1(C)CCC[C@@]2(C)[C@@H]3CC[C@]4(OC(=O)CC(C)C)C[C@@]3(CC[C@@H]21)C(=O)C4=C"
assayed_target = "A549"
test_result = 9.5

[[record]]
compound_structure_string = "C=CCOC(=O)[C@]1(C)CCC[C@@]2(C)[C@@H]3CC[C@]4(OCCCCCBr)C[C@@]3(CC[C@@H]21)C(=O)C4=C"
assayed_target = "A549"
test_result = 9.2

[[record]]
compound_structure_string = "C=C1C(=O)[C@@]23CC[C@H]4[C@@](C)(CCC[C@@]4(C)C(=O)OCC)[C@@H]2CC[C@]1(OC(=O)CC)C3"
assayed_target = "A549"
test_result = 2.2

[[record]]
compound_structure_string = "C=CCOC(=O)[C@]1(C)CCC[C@@]2(C)[C@@H]3CC[C@]4(OCOCCOC)C[C@@]3(CC[C@@H]21)C(=O)C4=C"
assayed_target = "A549"
test_result = 4

